Can you tell me Ratio IC50 for the items I'm about to list?
- Species: Homo sapiens
- testMethodNotes: Selectivity ratio of IC50 for inhibition of PI3Kbeta (unknown origin) to IC50 for inhibition of PI3Kgamma (unknown origin)
Keep the answer to the number alone.

[ask] Any idea what its Ratio IC50 is? The molecule is "C[C@@H](C1CC1)N1Cc2cc(-c3ccn4nc(N)c(C(=O)N[C@@H](CO)C5CC5)c4n3)cc(OC(F)(F)F)c2C1=O"
[reply] 3040

[ask] What about this molecule? "C[C@@H](C1CC1)N1Cc2cc(-c3ccn4nc(N)c(C(=O)N[C@@H](CO)C5CC5)c4n3)cc(OC(F)F)c2C1=O"
[reply] 9400

[ask] Item: "C[C@@H](C1CC1)N1Cc2cc(-c3ccn4nc(N)c(C(=O)N[C@H]5CC[C@](O)(C(F)(F)F)CC5)c4n3)cc(NS(C)(=O)=O)c2C1=O"
[reply] 4560

[ask] How about this molecule: "C[C@@H](C1CC1)N1Cc2cc(-c3ccn4nc(N)c(C(=O)N[C@H]5CC[C@@](C)(O)CC5)c4n3)cc(OC(F)(F)F)c2C1=O"
[reply] 7040

[ask] Next molecule: "C[C@@H](C1CC1)N1Cc2cc(-c3ccn4nc(N)c(C(=O)N[C@H]5CC[C@@](C)(O)CC5)c4n3)cc(OC(F)F)c2C1=O"
[reply] 3680

[ask] Do the same for "C[C@@H](C1CC1)N1Cc2cc(-c3ccn4nc(N)c(C(=O)N[C@H]5CC[C@](C)(O)CC5)c4n3)cc(NS(C)(=O)=O)c2C1=O" please
[reply] 8410

----------
- testSystem: Phosphatidylinositol 4,5-bisphosphate 3-kinase catalytic subunit gamma isoform (Homo sapiens)
- Sequence (P48736 whole entry, canonical isoform): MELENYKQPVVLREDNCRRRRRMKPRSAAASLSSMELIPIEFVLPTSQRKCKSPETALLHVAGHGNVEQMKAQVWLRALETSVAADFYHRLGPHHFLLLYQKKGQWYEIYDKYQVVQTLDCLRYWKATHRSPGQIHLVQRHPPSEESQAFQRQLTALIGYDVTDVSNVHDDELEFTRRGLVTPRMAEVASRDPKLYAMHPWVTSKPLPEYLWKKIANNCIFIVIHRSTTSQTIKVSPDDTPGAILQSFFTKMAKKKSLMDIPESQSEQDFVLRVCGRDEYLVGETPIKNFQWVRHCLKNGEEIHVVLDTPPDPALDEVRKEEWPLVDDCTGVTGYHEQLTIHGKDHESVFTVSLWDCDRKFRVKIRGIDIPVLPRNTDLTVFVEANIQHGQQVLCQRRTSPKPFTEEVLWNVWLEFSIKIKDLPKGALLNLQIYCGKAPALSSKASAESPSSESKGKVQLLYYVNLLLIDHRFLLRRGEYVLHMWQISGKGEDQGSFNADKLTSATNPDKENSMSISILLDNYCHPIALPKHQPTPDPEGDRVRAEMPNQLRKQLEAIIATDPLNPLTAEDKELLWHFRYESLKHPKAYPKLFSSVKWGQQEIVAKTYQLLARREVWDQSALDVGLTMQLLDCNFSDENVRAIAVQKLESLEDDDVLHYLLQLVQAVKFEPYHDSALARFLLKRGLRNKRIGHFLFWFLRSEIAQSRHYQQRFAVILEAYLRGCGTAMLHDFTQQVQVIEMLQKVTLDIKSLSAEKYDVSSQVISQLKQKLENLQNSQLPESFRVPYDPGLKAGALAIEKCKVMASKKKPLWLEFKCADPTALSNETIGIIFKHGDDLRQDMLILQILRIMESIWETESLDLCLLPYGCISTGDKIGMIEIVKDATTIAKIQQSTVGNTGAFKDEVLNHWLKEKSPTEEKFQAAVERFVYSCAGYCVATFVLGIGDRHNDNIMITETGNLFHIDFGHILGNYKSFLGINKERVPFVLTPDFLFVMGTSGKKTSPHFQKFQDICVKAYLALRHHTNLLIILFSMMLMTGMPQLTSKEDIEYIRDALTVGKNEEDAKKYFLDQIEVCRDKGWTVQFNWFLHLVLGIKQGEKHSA
- testMethodNotes: Inhibition of PI3Kgamma (unknown origin) in […] stimulated human THP-1 cells assessed as reduction in Akt phosphorylation level at Ser473 residue preincubated for 60 mins followed by rhMCP-1 stimulation and measured after 2 mins by AlphaLisa assay
- Format: cell-based
Answer each item with its documented pIC50.
pIC50 is a log-scale quantity: -log10 of the concentration expressed in molar.

[ask] What does the record list as pIC50 for "Cc1cc(-c2ccn3nc(N)c(C(=O)N[C@H]4CC[C@H](N)CC4)c3n2)cc2c1C(=O)N([C@@H](C)C1CC1)C2" ?
[reply] 6.56

[ask] Subsequent entry: "C[C@@H](C1CC1)N1Cc2cc(-c3ccn4nc(N)c(C(=O)NC5CC5)c4n3)cc(NS(C)(=O)=O)c2C1=O"
[reply] 7.43

[ask] Try this molecule too: "C[C@H](N1Cc2cc(-c3ccn4nc(N)c(C(=O)N[C@@H](CO)C5CC5)c4n3)cc(C3CC3)c2C1=O)C(F)(F)F"
[reply] 7.10

[ask] Now try "Cc1cc(-c2ccn3nc(N)c(C(=O)N[C@H](C)CO)c3n2)cc2c1C(=O)N([C@@H](C)C1CC1)C2" .
[reply] 6.73

[ask] Query "Cc1cc(-c2ccn3nc(N)c(C(=O)NC4CC4)c3n2)cc2c1C(=O)N([C@@H](C1CC1)C(F)(F)F)C2" next
[reply] 6.10

[ask] Moving on to "Cc1cc(-c2ccn3nc(N)c(C(=O)N[C@H]4CNC(=O)C4)c3n2)cc2c1C(=O)N([C@@H](C)C1CC1)C2"
[reply] 6.96

[ask] Now the same for "CS(=O)(=O)Nc1cc(-c2ccn3nc(N)c(C(=O)NC4CC4)c3n2)cc2c1C(=O)N([C@@H](C1CC1)C(F)(F)F)C2"
[reply] 7.06
